Form field: normalised response (one value per entry).
# Tested on: MDA-MB-453
# test-details: normalised response (% of control), CellTiter-Glo; higher = more viable cells (100 = DMSO, 0 = benzethonium chloride kill control)
# experimental-setup: incubation time: 72 h
Reply numerically in %, unit not repeated.

Answered cases to consult:
Report normalised response for c1cc(CN2CCCNCCNCCCNCC2)ccc1CN1CCCNCCNCCCNCC1 [Plerixafor] (1000 nM) tested on MDA-MB-453.
80.1

Given the entry CCCCC/C=C/C=C1/C(=O)C=C[C@@H]1C/C=C\CCCC(=O)O [15D-PGJ2] (0.08 nM) , what normalised response was observed with MDA-MB-453?
111

Hello, I am looking for reported normalised response with MDA-MB-453 for Cc1c(Cn2c(C)nc3c(C(=O)O)cc(N4CCOCC4)cc32)cccc1C(F)(F)F (1 nM) . Could you help?
100

New cases:
Param readout= normalised response; system= MDA-MB-453; entry= Cn1cc(CNCC2CCN(c3ncc(C(=O)NO)cn3)CC2)c2ccccc21 [Quisinostat] (1 nM) ; returns value.
105

Source listed as the supplement of paper PMC4862054.
